- assayProtocol: Rat oral pharmacokinetic study of torcetrapib formulations
- Assay type: in vivo
- appliedConditions: male, Wistar-Han, plasma, rats, 10 mg/kg, suspension in 0.5% methyl cellulose, mean n = 3
propertyLabel: Cmax

Would you mind telling me what Cmax value was observed for `CCOC(=O)N1c2ccc(C(F)(F)F)cc2[C@@H](N(Cc2cc(C(F)(F)F)cc(C(F)(F)F)c2)C(=O)OC)C[C@H]1CC` ?
84 nM

Values compiled from patent US11344496B2.
